# Tested on: SK-BR-3
# ASSAY: Cell growth inhibition assay (Cell Titer Glo), SK-BR-3
# Format: cell-based
# EXPERIMENTAL CONDITIONS: Homo sapiens, 72 h; SK-BR-3, PIK3CA WT, 3 days, single agent; read-out: Single agent (IC50, μm)
# Description: Human tumor cell lines from breast, BT474, BT474-J4, JIMT-1, MDA-MB-361, SK-BR-3, HCC1419, UACC893 and HCC202 in RPMI 1640 containing 10% FBS media; SK-BR-3-W13 and BT474-J4 in RPMI 1640 containing 10% FBS and 1 μM Compound A (in this assay, Compound A, was used in the form of the ditosylate monohydrate salt) media were kept in a humidified incubator at 37° C. in 95% air and 5% CO2 JIMT-1 is a line derived from a patient clinically resistant to trastuzumab (Herceptin®). […]
pIC50: −log10 of the molar value.
REPORTED METRIC: pIC50

>>> measured("CS(=O)(=O)CCNCc1ccc(-c2ccc3ncnc(Nc4ccc(OCc5cccc(F)c5)c(Cl)c4)c3c2)o1 [Compound A, reference compound]")
6.71
